- Test: Dose normalized AUC in po dosed mouse
- Type: ADME, organism-based
- Test settings: in vivo
Hi there, I'd appreciate the recorded AUC/dose for every entry that follows.
Give bare numbers, in ng·h/mL per mg/kg.

Input: Which AUC/dose is reported for this compound? `CC(C)(O)[C@H]1CC[C@H](NC(=O)c2cnc3cc(OC(F)F)ccc3c2)CC1`
Output: 1800

Shifting focus to the compound that follows.
Input: Entry `CC(C)(O)[C@H]1CC[C@H](NC(=O)c2cnc3cc(OC(F)(F)F)ccc3c2)CC1` : reported AUC/dose = ?
Output: 1900

----------
- Test: Clearance in iv dosed mouse
- Format: ADME, organism-based
- Test settings: in vivo
Endpoint label: clearance (mL/min/kg)
Answers are plain numbers, in mL/min/kg.

Input: Reported clearance, molecule `CC(C)(O)[C@H]1CC[C@H](NC(=O)c2cnc3cc(OC(F)(F)F)ccc3c2)CC1` : ____
Output: 3.8

All values here come from ChEMBL document CHEMBL4400569.
